system: Plasmodium falciparum; test: Calibr Malaria Delayed Death Assay SOP; format: functional, organism-based; parameters: scale not given: in the data most compounds retested in dose-response had high values; details: concentration 4.99e-06 (unit not given; other assays of the set use mol/L)
Hit rate of the full screen: of about 38,000 compounds, about 1,200 (3.2%) showed an effect of 50% or more. The median lay at about -58%. For the sample, strong results were picked, then their nearest neighbours and some compounds at random.
endpoint_name: Percent Effect

Sample records with Percent Effect:
Fill in the blank: the reported Percent Effect of CCc1nc(CC(=O)N2CCCC2c2c(C)nn(C)c2OC)cs1 (stereo not drawn) is ____.
-39.25%

Moving on to the next compound: COC[C@@]12CCC[C@@H]1CN(C(=O)CN(C)C)C2.O=C(O)C(F)(F)F
-5.547%

Moving on to the next compound: O=C(C1CCOC1)N1C[C@H]2CN(Cc3ccncc3)C(=O)[C@H]2C1.O=C(O)C(F)(F)F (stereo partly drawn)
-110.3%

Moving on to the next compound: c1ccc(COCC2CN(Cc3ccsc3)Cc3nccn3C2)nc1 (stereo not drawn)
1.035%

Moving on to the next compound: O=C(CCNCc1cccc2c1OCCCO2)NC1CCCC1
12.04%

Moving on to the next compound: CO[C@H]1CCN(C2CCC2)[C@@H]2CN(Cc3ccncc3)C[C@H]12.O=C(O)C(F)(F)F.O=C(O)C(F)(F)F.O=C(O)C(F)(F)F
-45.55%

---
Fill in the blank: the reported Percent Effect of CCN1CC2(CC1=O)CN(C(C)=O)CCN(C(=O)NC)C2 (stereo not drawn) is ____.
-42.52%

Moving on to the next compound: FC(F)(F)c1ccc2nc([C@H]3CCN(C4CCCCC4)C3)[nH]c2c1
83.6%

Moving on to the next compound: CN(C)[C@@H]1CCN(c2ncccn2)[C@H]1Cc1ccncc1.O=C(O)C(F)(F)F.O=C(O)C(F)(F)F
-10.95%

---

system: Plasmodium falciparum; assay: Calibr Malaria Delayed Death Assay SOP; type: functional, organism-based; design: scale not given: in the data most compounds retested in dose-response had high values; conditions: concentration 4.99e-06 (unit not given; other assays of the set use mol/L)
The whole screen tested about 38,000 compounds, of which about 1,200 (3.2%) showed an effect of 50% or more. The median lay at about -58%. What follows is part of a selection rich in strong results, with near analogues and random picks from the rest.
Each record is given T if its reported Percent Effect is strictly below 40%. Records at or above 40% are given F.

# count of solved cases: 10
I'd appreciate it if you could check whether COc1ccccc1C(C)(C)NCc1ccco1 has Percent Effect smaller than 40%.
F

Moving on to the next compound: Cc1occc1C(=O)N1CCOCC2(CCN(C3CCOCC3)C2)C1.O=C(O)C(F)(F)F (stereo unspecified)
T

Moving on to the next compound: Cc1csc(CN(C)C(C)C(=O)N2CCc3ccccc3C2)n1 (stereo unspecified)
T

Moving on to the next compound: CCc1ccc(C(C)NCc2nccn2Cc2ccccc2)o1 (stereo unspecified)
T

Moving on to the next compound: CC(C)[C@H](N)C(=O)N1CCSc2ccccc2C1.Cl
F

Moving on to the next compound: O[C@H]1CC[C@@H](Cc2cc(-c3ccccc3)on2)O[C@@H]1CNCC1CC1
T

Moving on to the next compound: c1cc(CN2CCOCC3(CCN(C4CCOCC4)C3)C2)ccn1 (stereo unspecified)
T

Moving on to the next compound: COc1ccccc1C(O)Cn1cc(C(=O)NCc2ccco2)nn1 (stereo unspecified)
T

Moving on to the next compound: O[C@H]1CC[C@@H](Cc2cc(-c3ccccn3)on2)O[C@@H]1CNCC1CC1
T

Moving on to the next compound: CC(Cn1cccn1)NC(=O)NCc1ccnc(OC2CCCC2)c1 (stereo unspecified)
T

--- query ---
I'd appreciate it if you could check whether CN1CCC2(CC1)CN(Cc1ccc(C3CCCCO3)o1)CCCN2C (stereo unspecified) has Percent Effect smaller than 40%.
F
